Measurement target: T1, human C1s (human, UniProt P09871 16-688)
T1 construct: also called hC1s; serum-derived human C1s (CompTech)
T1 sequence: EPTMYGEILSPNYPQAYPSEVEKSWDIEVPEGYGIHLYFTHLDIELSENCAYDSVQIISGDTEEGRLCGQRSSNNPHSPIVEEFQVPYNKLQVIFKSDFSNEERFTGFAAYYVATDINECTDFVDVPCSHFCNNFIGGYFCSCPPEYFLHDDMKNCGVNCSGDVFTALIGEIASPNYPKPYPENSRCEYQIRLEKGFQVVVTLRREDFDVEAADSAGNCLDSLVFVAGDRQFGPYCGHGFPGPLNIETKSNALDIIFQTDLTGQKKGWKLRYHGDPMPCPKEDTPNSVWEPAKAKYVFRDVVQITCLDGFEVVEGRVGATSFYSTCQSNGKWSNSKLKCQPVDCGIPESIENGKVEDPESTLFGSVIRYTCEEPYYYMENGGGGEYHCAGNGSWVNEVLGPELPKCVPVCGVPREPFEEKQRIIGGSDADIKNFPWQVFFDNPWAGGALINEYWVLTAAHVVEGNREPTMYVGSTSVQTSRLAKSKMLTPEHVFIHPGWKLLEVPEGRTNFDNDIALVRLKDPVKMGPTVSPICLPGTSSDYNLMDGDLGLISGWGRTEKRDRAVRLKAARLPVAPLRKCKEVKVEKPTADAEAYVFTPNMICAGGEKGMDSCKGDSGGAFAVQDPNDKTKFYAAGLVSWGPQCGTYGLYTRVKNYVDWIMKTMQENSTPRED
Assay info: SPR, Ab captured; pH 5.8, 3 uM Ca
Measure name: koff (s⁻¹)
Response body: numeric value in s⁻¹, unit text excluded.

Known koff results, listed for orientation:
binder="C1_IPN009VH2-SG4GK/IPN93L0028-SK1 (antibody, human IgG4 S228P, kappa, name in Kabat numbering, V domains shown, also called IPN009VH2/IPN93L0028) VH: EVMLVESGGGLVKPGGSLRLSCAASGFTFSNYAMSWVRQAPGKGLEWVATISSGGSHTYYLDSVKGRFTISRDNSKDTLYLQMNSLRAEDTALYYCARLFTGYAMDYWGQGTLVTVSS VL: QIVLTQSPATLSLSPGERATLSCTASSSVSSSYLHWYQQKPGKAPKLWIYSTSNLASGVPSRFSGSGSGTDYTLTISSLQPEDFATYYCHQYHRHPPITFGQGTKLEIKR" reading=0.00351
binder="C1_IPN009VH2-SG4GK/IPN93L0029-SK1 (antibody, human IgG4 S228P, kappa, name in Kabat numbering, V domains shown, also called IPN009VH2/IPN93L0029) VH: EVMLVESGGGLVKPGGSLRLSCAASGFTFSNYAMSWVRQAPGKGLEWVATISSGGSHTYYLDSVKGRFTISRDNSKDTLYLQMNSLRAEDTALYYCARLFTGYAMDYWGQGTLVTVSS VL: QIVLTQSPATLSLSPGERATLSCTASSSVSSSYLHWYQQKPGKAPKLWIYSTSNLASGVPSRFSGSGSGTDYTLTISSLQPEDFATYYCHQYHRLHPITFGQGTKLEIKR" reading=0.00296

Data request: Give koff for the following binder: C1_IPN92H0038-SG4GK/IPN009VK3-SK1 (antibody, human IgG4 S228P, kappa, name in Kabat numbering, V domains shown, also called IPN92H0038/IPN009VK3) VH: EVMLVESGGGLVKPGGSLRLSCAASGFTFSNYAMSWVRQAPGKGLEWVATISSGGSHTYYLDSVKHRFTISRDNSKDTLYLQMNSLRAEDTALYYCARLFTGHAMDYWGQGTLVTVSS VL: QIVLTQSPATLSLSPGERATLSCTASSSVSSSYLHWYQQKPGKAPKLWIYSTSNLASGVPSRFSGSGSGTDYTLTISSLQPEDFATYYCHQYYRLPPITFGQGTKLEIKR
Data returned: 0.00538
